Taken from patent US20240279318A1.

biological target: T1, AFP158/HLA-A*02:01 complex (human); experiment: SPR, crude scFv captured, pMHC analyte;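 also: pMHC analyte injected at three concentrations, association phase of one hundred seconds, then running buffer for dissociation, rates fitted from both curves, KD derived from the rates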
T1 construct: flowed as analyte in SPR
Threshold check on koff: at or above 0.004 s⁻¹ gives yes (1), strictly below gives no (0).

Some entries whose results are on file:
Check the entry AS170036 VL1VH1 (scFv, Crude scFv from E. coli TG1 supernatant; also called AS170036 VL1VH1 scFv) scFv: QSALTQPRSVSGSPGQSVTISCAGTSSDVGSENYVSWYQQHPGKAPKLMIYQVNKRASGVPDRFSGSKSGNTASLTISGLQAEDEADYYCASYRSSDHNIVFGGGTKLTVLGGGGSGGGGSGGGGSEVQLVESGGGLVQPGGSLRLSCAASGFTFSSYAMSWVRQAPGKGLEWVSTINSGTGSPYYADSVKGRFTISRDNSKNTLYLQMNSLRAEDTAVYYCAKNFFDGSWFLGPPAMDYWGQGTLVTVSSHHHHHH : does koff equal or exceed 0.004 s⁻¹? yes (1)

hey, is koff for this one >= 0.004 s⁻¹? AS170036 VL1VH1-56N98F (scFv, also called 04-AS170036 VL1VH1-56N98F) scFv: QSALTQPRSVSGSPGQSVTISCAGTSSDVGSENYVSWYQQHPGKAPKLMIYQVNKRASGVPDRFSGSKSGNTASLTISGLQAEDEADYYCASYRSSDFNIVFGGGTKLTVLGGGGSGGGGSGGGGSEVQLVESGGGLVQPGGSLRLSCAASGFTFSSYAMSWVRQAPGKGLEWVSTINSGTNSPYYADSVKGRFTISRDNSKNTLYLQMNSLRAEDTAVYYCAKNFFDGSWFLGPPAMDYWGQGTLVTVSSHHHHHH yes (1)

In plain terms: is recorded koff at least 0.004 s⁻¹ for AS170036 VL1VH1-98I108A (scFv, also called 34-AS170036 VL1VH1-98I108A; 34-AS170036 VL1VH1-98I08A) scFv: QSALTQPRSVSGSPGQSVTISCAGTSSDVGSENYVSWYQQHPGKAPKLMIYQVNKRASGVPDRFSGSKSGNTASLTISGLQAEDEADYYCASYRSSDINIVFGGGTKLTVLGGGGSGGGGSGGGGSEVQLVESGGGLVQPGGSLRLSCAASGFTFSSYAMSWVRQAPGKGLEWVSTINSGTGSPYYADSVKGRFTISRDNSKNTLYLQMNSLRAEDTAVYYCAKNFFDGSWFLAPPAMDYWGQGTLVTVSSHHHHHH ? no (0)

Further cases:
Does AS170036 VL1VH1-98Q108D (scFv, also called 38-AS170036 VL1VH1-98Q108D) scFv: QSALTQPRSVSGSPGQSVTISCAGTSSDVGSENYVSWYQQHPGKAPKLMIYQVNKRASGVPDRFSGSKSGNTASLTISGLQAEDEADYYCASYRSSDQNIVFGGGTKLTVLGGGGSGGGGSGGGGSEVQLVESGGGLVQPGGSLRLSCAASGFTFSSYAMSWVRQAPGKGLEWVSTINSGTGSPYYADSVKGRFTISRDNSKNTLYLQMNSLRAEDTAVYYCAKNFFDGSWFLDPPAMDYWGQGTLVTVSSHHHHHH have a reported koff of at least 0.004 s⁻¹? yes (1)
